B1: Lysine-specific demethylase 2B, residues 656 to 722; numbered along this chain, Q8NHM5 (parent)
chain: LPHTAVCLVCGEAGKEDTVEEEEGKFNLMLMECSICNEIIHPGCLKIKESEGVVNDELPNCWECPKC

Variants of: B1
Test: abundance fitness (aPCA) (normalised: wild type 0, dead -1); higher = more abundant; growth selection in yeast, the domain comes from the species named
Settings: Homo sapiens
Respond with y for abundance fitness values of -0.2 and above, n for values below.

The examples below pair each entry with its known result.
# variantId, category
rows = [
    ("D56T", "y"),
    ("V53A", "y"),
    ("E38S", "y"),
    ("K48F", "y"),
    ("T18R", "y"),
]

// query Does P65I have a reported abundance fitness of at least -0.2?
// result n

// query Does I39V have a reported abundance fitness of at least -0.2?
// result y

// query Does H41Q have a reported abundance fitness of at least -0.2?
// result n
